Measured IC50, listed per entry.
# experimental.target: Pseudomonas aeruginosa LpxC enzyme (Pseudomonas aeruginosa (strain ATCC 15692 / DSM 22644 / CIP 104116 / JCM 14847 / LMG 12228 / 1C / PRS 101 / PAO1))
# test: biochemical
# Type: biochemical
# particulars: inhibitory activity on Pseudomonas aeruginosa LpxC enzyme, class symbols A/B/C; read-out: Enzyme inhibitory activity

# compound, IC50
measured = [
    ("CNC(=O)C(C(=O)NO)N(C)C(=O)c1ccc(-c2ccc(NCCOC)c(F)c2)cc1 (centres unmarked)", "< 10 nM"),
    ("CCCOc1ccc(-c2ccc(C(=O)N(C)C(C(=O)NC)C(=O)NO)cc2)cn1 (centres unmarked)", "< 10 nM"),
    ("CNC(=O)C(C(=O)NO)N(C)C(=O)c1ccc(-c2ccc(OCCCN3CCOCC3)c(F)c2)cc1 (centres unmarked)", "< 10 nM"),
    ("CNC(=O)C(C(=O)NO)N(C)C(=O)c1ccc(C#Cc2ccc(CN3CCCOCC3)cc2)cc1 (centres unmarked)", "< 10 nM"),
    ("CNC(=O)C(C)(C(=O)NO)N(C)C(=O)c1ccc(-c2ccc(OC)cc2)cc1 (centres unmarked)", "< 10 nM"),
]

Note: attention shifts to another entry.
For the compound CNC(=O)C(C(=O)NO)N(C)C(=O)c1ccc(-c2ccc(OCCCn3ccnc3)cc2)cc1 (centres unmarked) , give its reported IC50.
< 10 nM
